Measured values drawn from patent US8492394B2 for this set.

// PDE10A enzyme (Homo sapiens (Human)) IC50 records
readout-type: IC50 (nM)

>  <molecule>
COc1cc2ncnc(N3CCN[C@@H](c4ccccc4)C3)c2cc1OC

>  <units-label>
nM

>  <IC50>
90

$$$$

P. COc1cc2ncnc(N3CCN[C@H](c4ccccc4)C3)c2cc1OC
Q. COc1cc2ncnc(N3CCNC(c4ccc5c(c4)OCO5)C3)c2cc1OC (stereo not shown)
R. COc1cc2ncnc(N3CCOC(c4ccccc4Cl)C3)c2cc1OC (stereo not shown)
query: Hey, quick one: sort these by IC50, largest value first please. Write the labels in rank order as requested.
result: R, P, Q
